# Test system: MOLT-4
# assay.comment: NCI tumour cell line growth inhibition, 48 h
Calls of active or inactive are those of the source. Cut-off read from the data, not from the text of the source: active = GI50 up to about 1.1 µM and inactive = higher. Where a SMILES comes first, the peptide text is derived from it. [ ]: non-standard residue; d: D form. The star is where a group is joined. ξ: configuration not given here. Propanoyl(3-(4-MeO-Ph)) = COc1ccc(CCC(=O)*)cc1; Thr(3ξ) = CC(O)[C@H](N)C(=O)O; dNMeL = CN[C@H](CC(C)C)C(=O)O; OBn = c1ccc(CO*)cc1; ξLac = CC(O)C(=O)O
measure.name: GI50

The molecule O=C(CC1C(=O)Nc2ccccc2S1(=O)=O)Nc1cc(Cl)ccc1Cl (centres undefined) on MOLT-4: GI50 was 6.01 µM (inactive)

The molecule COc1ccc(CCC(=O)OC(C)[C@H](NC(=O)[C@@H](CC(C)C)N(C)C(=O)[C@@H]2CCCN2C(=O)C(C)O)C(=O)OCc2ccccc2)cc1 (some centres undefined) (H-[ξLac]P[dNMeL][Thr(3ξ)](Propanoyl(3-(4-MeO-Ph)))-OBn) on MOLT-4: GI50 was 24.3 µM (inactive)

The molecule `O=c1/c(=C/c2ccccc2[N+](=O)[O-])sc2nnc(-c3cccnc3)n12` on MOLT-4: GI50 was 63.5 µM (inactive)

The molecule `Cn1c(=O)c2nc(NCCO)cnc2n(C)c1=O` on MOLT-4: GI50 was > 100 µM (inactive)
